# pKi per entry for human α-thrombin (Homo sapiens, UniProt P00734)
pKi: −log10 of the molar value. Where a name gives a salt, the structure may show the parent alone.
Readout: pKi

Compound	Result
CC1(C)C[C@@H](C(=O)NCc2cc3cnccc3[nH]2)n2c1cnc(NCc1ccccc1)c2=O [Compound 228, trifluoroacetate]	5.00 to 5.60
Cc1cc(F)cc(CNc2ncc3n(c2=O)[C@H](C(=O)NCc2cnc(N)c(Cl)c2)CC3)c1 [Compound 192, trifluoroacetate]	5.60 to 6.30
O=C(NCc1cc2cnccc2[nH]1)[C@@H]1CCc2cnc(NCc3cccc(C(F)(F)F)c3)c(=O)n21 [Compound 117, trifluoroacetate]	5.00 to 5.60
Cc1cc(C)cc(CNc2ncc3n(c2=O)[C@H](C(=O)N[C@H](C)c2ccc(N)nc2)CC3)c1 [Compound 198, trifluoroacetate]	5.00 to 5.60
CCc1cccc(CNc2ncc3n(c2=O)[C@H](C(=O)NCc2ccc(N)nc2C)CC3)c1	> 6.30
Cc1nc(N)ccc1CNC(=O)[C@@H]1CCc2c(Cl)nc(NCc3ccc(Cl)cc3)c(=O)n21 [Compound 30, trifluoroacetate]	5.00 to 5.60
C[C@H](NC(=O)[C@@H]1CCc2cnc(N[C@@H](c3ccccc3)C(C)(C)C)c(=O)n21)c1cc2c(s1)CNC2 [Compound 270, trifluoroacetate]	4.60 to 5.00
COc1cc(C)cc(CNc2ncc3n(c2=O)[C@@H](C(=O)NCc2cc4cnccc4[nH]2)CC3)c1	5.00 to 5.60

###

# Ki per entry for MASP-2 (CCP1-CCP2-SP) (Homo sapiens, UniProt O00187)
Where a name gives a salt, the structure may show the parent alone.
Readout: Ki

Compound	Readout	Result
C[C@H](NC(=O)[C@@H]1CCc2cnc(N[C@@H](c3ccccc3)C3CC3)c(=O)n21)c1cc2c(s1)CNC2 [Compound 273, trifluoroacetate]	Ki	2.5 to 10 µM
O=C(NCc1cc2cnccc2[nH]1)[C@@H]1CC2(CCCC2)c2c(Cl)nc(NCc3ccccc3)c(=O)n21 [Compound 231, trifluoroacetate]	Ki	< 0.5 µM
O=C(NCc1cc2cnccc2[nH]1)[C@@H]1CCc2c(Cl)nc(NCc3cccc(F)c3)c(=O)n21	Ki	< 0.5 µM

###

- Test system: Lectin Pathway Activation in human serum
- Assay summary: Lectin Pathway Activation (LPA) assay in human serum, mannan-coated ELISA plate, C4c detection
- Assay type: biochemical
- Setup conditions: 1% human serum, read-out: LPA Functional Activity (IC50)
pIC50: −log10 of the molar value. Structures can show the parent of a compound that is named as a salt.

Compound	pIC50
Cc1cc(C)cc([C@@H](CO)Nc2ncc3n(c2=O)[C@H](C(=O)NCc2cc4cnccc4[nH]2)CC3)c1	> 7.30
CC[C@H]1C[C@@H](C(=O)NCc2cc3cnccc3[nH]2)n2c1cnc(NCc1cc(C)cc(C)c1)c2=O	> 7.30
CC1(C)C[C@@H](C(=O)NCc2cc3cnccc3[nH]2)n2c1cnc(NCc1ccccc1)c2=O [Compound 228, trifluoroacetate]	> 7.30
O=C(NCc1cc2c(s1)CNC2)[C@@H]1CCc2cnc(N[C@@H](c3ccccc3)C3CC3)c(=O)n21 [Compound 259, trifluoroacetate]	> 7.30
Cc1ccc(F)c(CNc2ncc3n(c2=O)[C@H](C(=O)NCc2cc4cnccc4[nH]2)CC3)c1	> 7.30
CC[C@@H](Nc1ncc2n(c1=O)[C@H](C(=O)N[C@H](C)c1cc3c(s1)CNC3)CC2)c1ccccc1	6.30 to 7.30
